target-under-test: T1, human GLP-1 receptor (human, UniProt P43220 24-463)
T1 construct: whole, on cells; Used as crude membranes of stably transfected HEK293 cells; also called hGLP1R; hGLP-1R
assay-procedure: SPA, [125I]-GLP-1 displacement, hGLP-1R membranes
Square brackets hold non-standard residues; d marks the D form. Side chains are listed from the residue outwards. Ends that are not written are not given here. * marks the point of attachment. C20 diacid = O=C(O)CCCCCCCCCCCCCCCCCCC(=O)*; αMeL = CC(C)C[C@](C)(N)C(=O)O; αMeK = C[C@](N)(CCCCN)C(=O)O; Dab = NCC[C@H](N)C(=O)O; AEEA = NCCOCCOCC(=O)O; Aib = CC(C)(N)C(=O)O
Catalogue of Ki values
property: Ki (nM)

binder: YXXGTFTSDYSILLDKKAQXAFIEYLIEGGPSSGAPPPS (Aib2; Aad3; K17((2-[2-(2-Amino-ethoxy)-ethoxy]-acetyl)2-(γ-Glu)-CO-(CH2)18-CO2H); Aib20; C-terminal NH2) [Example 89]
property: Ki
unit-tag: nM
result-number: 2.64

binder: YXEGTXTSDYSIXLDKKAQXAFIEYLIEGGPSSGAPPPS (Aib2; αMeF6; αMeL13; K17((2-[2-(2-Amino-ethoxy)-ethoxy]-acetyl)2-(γ-Glu)2-CO-(CH2)18-CO2H); Aib20; C-terminal NH2) [Example 125]
property: Ki
unit-tag: nM
result-number: 3.19

binder: YXEGTXTSDVSIXLDXKAQXEFIXXLIEGGPSSGAPPPS (not fully specified; Aib2; αMeF(2F)6; αMeL13; Orn16; K17((2-[2-(2-Amino-ethoxy)-ethoxy]-acetyl)2-(γ-Glu)-CO-(CH2)16-CO2H); Aib20; D-Glu24; αMeY25; C-terminal NH2) [Example 5]
property: Ki
unit-tag: nM
result-number: 0.902

binder: XAEGTFTSDYSILLDKKAQXAFIEYLIEGGPSSGAPPPS (N-terminal Ac; D-Tyr1; K17((2-[2-(2-Amino-ethoxy)-ethoxy]-acetyl)2-(γ-Glu)-CO-(CH2)18-CO2H); Aib20; C-terminal NH2) [Example 79]
property: Ki
unit-tag: nM
result-number: 2.69

binder: YXEGTFTSDYSIXLDSKAQXAFIEYLLEGGPSSGAPPPS (Aib2; αMeL13; K17((2-[2-(2-Amino-ethoxy)-ethoxy]-acetyl)2-(γ-Glu)-CO-(CH2)18-CO2H); Aib20; C-terminal NH2) [Example 61]
property: Ki
unit-tag: nM
result-number: 11.1

binder: YXEGTXTSDVSIXLDEKAQXEFIXYLIEGGPSSGAPPPS (Aib2; αMeF(2F)6; αMeL13; K17((2-[2-(2-Amino-ethoxy)-ethoxy]-acetyl)2-(γ-Glu)-CO-(CH2)18-CO2H); Aib20; D-Glu24; C-terminal NH2) [Example 191]
property: Ki
unit-tag: nM
result-number: 4.52

binder: YXEGTFTSDYSIXLDSKAQXAFIEYLIEGG (Aib2; αMeL13; K17((2-[2-(2-Amino-ethoxy)-ethoxy]-acetyl)2-(γ-Glu)-CO-(CH2)18-CO2H); Aib20; C-terminal NH2) [Example 64]
property: Ki
unit-tag: nM
result-number: 4.86

binder: YXEGTXTSDYSIXLDKKAQXAFIEYLIEGG (Aib2; αMeF6; αMeL13; K17((2-[2-(2-Amino-ethoxy)-ethoxy]-acetyl)2-(γ-Glu)-CO-(CH2)18-CO2H); Aib20; C-terminal NH2) [Example 99]
property: Ki
unit-tag: nM
result-number: 1.15

binder: YXEGTXTSDYSIXLDEKAQXAFIEYLIEGG (Aib2; αMeF6; αMeL13; K17((2-[2-(2-Amino-ethoxy)-ethoxy]-acetyl)2-(γ-Glu)-CO-(CH2)18-CO2H); Aib20; C-terminal NH2) [Example 100]
property: Ki
unit-tag: nM
result-number: 4.13

binder: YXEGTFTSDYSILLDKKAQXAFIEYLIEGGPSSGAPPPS (αMePro2; K17((2-[2-(2-Amino-ethoxy)-ethoxy]-acetyl)2-(γ-Glu)-CO-(CH2)18-CO2H); Aib20; C-terminal NH2) [Example 87]
property: Ki
unit-tag: nM
result-number: 1.79

binder: H[Aib]EGTFTSDYSI[αMeL]LDKK([Dab-AEEA-Dab-AEEA-C20 diacid])AQ[αMeK]AFIQYLLA[Aib]GPSSGAPKPS-NH2 [Example 18]
property: Ki
unit-tag: nM
result-number: 0.319

binder: YXEGTXTSDXSIXLDXKAQXEFIXXLIEGGPSSGAPPPS (not fully specified; Aib2; αMeF(2F)6; 4Pal10; αMeL13; Orn16; K17((2-[2-(2-Amino-ethoxy)-ethoxy]-acetyl)2-(γ-Glu)-CO-(CH2)16-CO2H); Aib20; D-Glu24; αMeY25; C-terminal NH2) [Example 4]
property: Ki
unit-tag: nM
result-number: 1.63

binder: YXEGTXTSDYSIXLDKKAQXDFIEYLIEGGPSSGAPPPS (Aib2; αMeF6; αMeL13; K17((2-[2-(2-Amino-ethoxy)-ethoxy]-acetyl)2-(γ-Glu)-CO-(CH2)18-CO2H); Aib20; C-terminal NH2) [Example 140]
property: Ki
unit-tag: nM
result-number: 1.46

binder: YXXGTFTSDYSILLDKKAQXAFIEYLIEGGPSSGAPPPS (Aib2; γ-Glu3; K17((2-[2-(2-Amino-ethoxy)-ethoxy]-acetyl)2-(γ-Glu)-CO-(CH2)18-CO2H); Aib20; C-terminal NH2) [Example 91]
property: Ki
unit-tag: nM
result-number: 5.23

binder: YXEGTXTSDXSIXLDEKAQXEFIEYLIEGGPSSGAPPPS (Aib2; αMeF(2F)6; 4Pal10; αMeL13; K17((2-[2-(2-Amino-ethoxy)-ethoxy]-acetyl)2-(γ-Glu)-CO-(CH2)18-CO2H); Aib20; C-terminal NH2) [Example 158]
property: Ki
unit-tag: nM
result-number: 11.8

All values here come from patent US20200024322A1.
